Structures can show the parent of a compound that is named as a salt.
attribute_measured: melting point

Some solved cases for reference:
> print(dat)
                                   molecule         result
1  Cc1ccc2c3c(ccc2n1)OCC(CN(C)CCCCc1c[nH]c2ccc(F)cc12)O3 (centres unmarked) (as salt: hydrochloride)  274 to 275 °C
2  CCN(CCCCc1coc2ccccc12)C[C@H]1COc2ccc3nc(C)ccc3c2O1 (as salt: fumarate)    87 to 92 °C
3  Cc1ccc2c3c(ccc2n1)OCC(CNCCc1csc2ccccc12)O3 (centres unmarked) (as salt: fumarate)  124 to 127 °C
4  CCN(CCCc1c[nH]c2ccc(F)cc12)CC1COc2ccc3nc(C)ccc3c2O1 (centres unmarked) (as salt: hydrochloride)  158 to 175 °C

Would you kindly share the measured melting point for Cc1ccc2c3c(ccc2n1)OCC(CN(C)CCCc1cn(C)c2ccc(F)cc12)O3 (centres unmarked) (as salt: hydrochloride) ?
274 to 275 °C

Taken from patent US6800637B2.
